Target: hGYS1 enzyme (recombinant hGYS1/GN1 protein) (Homo sapiens (Human), UniProt P13807)
Sequence (P13807 whole entry): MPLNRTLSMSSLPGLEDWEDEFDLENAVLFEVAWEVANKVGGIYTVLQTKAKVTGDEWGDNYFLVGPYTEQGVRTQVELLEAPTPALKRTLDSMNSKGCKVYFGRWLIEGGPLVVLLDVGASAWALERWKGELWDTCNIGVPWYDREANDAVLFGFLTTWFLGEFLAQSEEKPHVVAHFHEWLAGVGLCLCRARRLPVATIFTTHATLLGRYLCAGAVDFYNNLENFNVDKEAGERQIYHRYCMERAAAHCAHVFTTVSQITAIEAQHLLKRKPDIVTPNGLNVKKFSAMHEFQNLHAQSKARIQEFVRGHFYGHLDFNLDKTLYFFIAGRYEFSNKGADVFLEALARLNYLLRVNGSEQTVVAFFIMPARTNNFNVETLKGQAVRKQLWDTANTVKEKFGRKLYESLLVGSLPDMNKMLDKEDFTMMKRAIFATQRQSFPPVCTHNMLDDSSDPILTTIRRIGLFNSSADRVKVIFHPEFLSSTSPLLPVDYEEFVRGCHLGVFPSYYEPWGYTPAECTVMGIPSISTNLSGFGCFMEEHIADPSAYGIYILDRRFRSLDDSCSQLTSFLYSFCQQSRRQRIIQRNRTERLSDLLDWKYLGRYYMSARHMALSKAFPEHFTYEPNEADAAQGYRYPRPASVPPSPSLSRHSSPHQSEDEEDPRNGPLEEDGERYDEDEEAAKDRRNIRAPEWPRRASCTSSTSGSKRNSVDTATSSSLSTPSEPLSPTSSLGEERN
Sequence (P46976 whole entry partner): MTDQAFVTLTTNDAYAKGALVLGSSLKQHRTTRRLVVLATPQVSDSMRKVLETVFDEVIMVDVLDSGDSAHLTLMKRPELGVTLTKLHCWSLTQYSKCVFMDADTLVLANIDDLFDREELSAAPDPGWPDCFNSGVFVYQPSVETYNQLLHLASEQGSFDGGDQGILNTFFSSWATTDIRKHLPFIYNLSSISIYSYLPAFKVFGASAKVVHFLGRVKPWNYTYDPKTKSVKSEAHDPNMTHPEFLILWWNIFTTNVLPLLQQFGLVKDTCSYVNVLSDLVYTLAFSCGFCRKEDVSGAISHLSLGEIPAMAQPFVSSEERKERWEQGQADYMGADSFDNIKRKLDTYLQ
Assay: GYS1 coupled enzyme assay (PK/LDH)
Conditions: hGYS1/GN1 50 nM, UDP-Glucose 0.8 mM, G6P 1 mM; geometric mean of at least 2 runs
Description: The GYS1 coupled enzyme assay is a kinetic biochemical assay that indirectly quantifies the rate of glycogen synthesis by coupling the conversion of GYS1 substrate UDP-glucose into UDP with downstream enzymatic reactions. UDP is released from UDP-glucose as glucose monomers are linked into the growing glycogen strand by GYS1. […] Oxidation of NADH to NAD+ can be measured continuously with a plate reader by quantifying the decrease in NADH absorbance at 340 nm over time. […]
pIC50: −log10 of the molar value.
Property label: pIC50

# example entries with known answers
>  <Compound>
Cc1cnnn1CC(=O)N1C[C@H](F)C[C@H]1C(=O)N[C@@H](c1ccccc1)c1ccc(C(C)C)c(F)c1

>  <pIC50>
7.66

$$$$
>  <Compound>
CC(=O)N1[C@@H](C)CC[C@H]1C(=O)N[C@@H](c1ccccc1)c1ccc(C(C)C)cc1

>  <pIC50>
6.07

$$$$
>  <Compound>
CC(C)c1ccc([C@@H](NC(=O)[C@@H]2C[C@@H](F)CN2C(=O)Cc2cnn[nH]2)c2ccccc2)cc1Cl

>  <pIC50>
7.09

$$$$
>  <Compound>
CC(=O)NCc1cccc([C@H](NC(=O)[C@@H]2C[C@@H](F)CN2C(=O)Cc2cnn[nH]2)c2ccc(C(C)C)c(F)n2)c1

>  <pIC50>
6.00

$$$$
>  <Compound>
CC(C)c1ccc(C(NC(=O)[C@@H]2C[C@@H](F)CN2C(=O)Cc2ncco2)c2ccn[nH]2)nc1F (single isomer, unassigned)

>  <pIC50>
7.04

$$$$
>  <Compound>
O=C(NC(c1ccc(C2CC2)c(F)n1)c1ccccc1F)[C@@H]1C[C@@H](F)CN1C(=O)Cn1nnnc1C(F)F (single isomer, unassigned)

>  <pIC50>
6.90

$$$$
>  <Compound>
Cc1cnc(CC(=O)N2C[C@H](F)C[C@H]2C(=O)N[C@@H](c2ccccc2)c2ccc(C3CC(F)(F)C3)c(F)c2)o1

>  <pIC50>
7.38

$$$$
>  <Compound>
COCCN1CCN(C(=O)NCC(=O)N2C[C@H](F)C[C@H]2C(=O)N[C@@H](c2ccccc2)c2ccc(C3CC3)c(F)c2)CC1

>  <pIC50>
7.51

$$$$
>  <Compound>
Cc1n[nH]c(C)c1CC(=O)N1C[C@H](F)C[C@H]1C(=O)N[C@@H](c1ccccc1)c1ccc(C2CC2)c(F)c1

>  <pIC50>
7.36

$$$$

P = O=C(N[C@@H](c1ccccc1)c1ccc(C2CC2)c(F)n1)[C@@H]1C[C@@H](F)CN1C(=O)Cn1cccn1
Q = COc1ccc(CC(=O)N2C[C@H](F)C[C@H]2C(=O)N[C@@H](c2ccccc2)c2ccc(C(C)C)cc2)c(C#N)c1
R = CCN(CC)c1cnnn1CC(=O)N1C[C@H](F)C[C@H]1C(=O)N[C@@H](c1ccccc1)c1ccc(C(C)C)cn1
S = CC(=O)NCC(=O)N1CCC[C@H]1C(=O)N[C@@H](c1ccccc1)c1ccc(C2CC2)c(F)c1
[ask] Exam item: list the entries in increasing order of pIC50. Rank the items, then write their labels in that order.
[reply] S, R, P, Q
(S: 6.53, R: 7.13, P: 7.34, Q: 8.00)
